- SUBJECT OF TEST: YTHDF2 (Homo sapiens, UniProt Q9Y5A9)
- Sequence (Q9Y5A9 1-579): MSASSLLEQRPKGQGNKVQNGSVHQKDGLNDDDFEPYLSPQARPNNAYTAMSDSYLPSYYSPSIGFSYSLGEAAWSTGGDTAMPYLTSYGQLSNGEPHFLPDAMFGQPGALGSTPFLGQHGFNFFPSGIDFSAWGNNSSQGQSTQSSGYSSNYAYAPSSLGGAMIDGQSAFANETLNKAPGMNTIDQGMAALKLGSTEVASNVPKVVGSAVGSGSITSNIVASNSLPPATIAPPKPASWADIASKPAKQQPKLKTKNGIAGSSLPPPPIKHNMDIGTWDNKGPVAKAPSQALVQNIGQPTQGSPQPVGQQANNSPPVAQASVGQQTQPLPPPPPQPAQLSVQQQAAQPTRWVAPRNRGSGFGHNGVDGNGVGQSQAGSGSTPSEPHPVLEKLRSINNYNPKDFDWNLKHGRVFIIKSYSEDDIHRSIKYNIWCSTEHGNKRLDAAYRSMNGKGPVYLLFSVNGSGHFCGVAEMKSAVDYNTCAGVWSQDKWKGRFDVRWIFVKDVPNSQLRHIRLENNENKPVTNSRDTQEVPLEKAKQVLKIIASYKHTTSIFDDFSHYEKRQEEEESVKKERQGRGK
QUANTITY NAME: IC50 (nM)
Answers are plain numbers, in nM.

Sample O=c1[nH]c(=S)[nH]c2scc(-c3ccc(O)cc3)c12 [Compound 19] ; IC50 observed: 2000
